Recorded pEC50 for the following compounds
# TARGET_OF_ASSAY: Melanocortin receptor 5 (Mus musculus)
# Sequence (P41149 whole entry): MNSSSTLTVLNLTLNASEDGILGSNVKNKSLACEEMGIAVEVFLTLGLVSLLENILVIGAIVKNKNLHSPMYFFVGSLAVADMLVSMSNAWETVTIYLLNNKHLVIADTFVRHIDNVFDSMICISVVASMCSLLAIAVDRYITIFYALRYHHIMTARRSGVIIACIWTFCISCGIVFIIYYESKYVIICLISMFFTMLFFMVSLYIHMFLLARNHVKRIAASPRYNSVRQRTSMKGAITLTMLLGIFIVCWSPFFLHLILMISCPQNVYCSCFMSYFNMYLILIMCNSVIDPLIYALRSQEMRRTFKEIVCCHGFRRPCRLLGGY
# METHOD_NOTES: Agonist activity at mouse MC5 receptor expressed in HEK-293 cells assessed as cAMP response measured after 2 hrs incubation by cAMP Alphascreen assay
// scale note: pEC50 = -log10(conc_M); give the bare number

>>> numeric_result("CC(=O)N[C@@H](Cc1c[nH]cn1)C(=O)N[C@H](Cc1ccccc1)C(=O)N[C@@H](CCCNC(=N)N)CC(=O)N[C@@H](Cc1c[nH]c2ccccc12)C(N)=O")
7.14
>>> numeric_result("CC(=O)N[C@@H](Cc1c[nH]cn1)C(=O)N[C@@H](Cc1ccccc1)C(=O)N[C@@H](CCCN=C(N)N)C(=O)N[C@@H](Cc1c[nH]c2ccccc12)C(N)=O")
7.15
>>> numeric_result("CC(=O)N[C@@H](Cc1c[nH]cn1)C(=O)N[C@H](Cc1ccccc1)C(=O)N[C@@H](CCCNC(=N)N)C(=O)N[C@H](CC(N)=O)Cc1c[nH]c2ccccc12")
8.25

Note: attention shifts to another entry.
Suppose we examine the compound `CC(=O)N[C@@H](Cc1c[nH]cn1)C(=O)N[C@H](CC(=O)N[C@@H](CCCNC(=N)N)C(=O)N[C@@H](Cc1c[nH]c2ccccc12)C(N)=O)Cc1ccccc1` ; what pEC50 value has been reported?
5.32
